Quick list: IC50 per entry.
# system.name: p110β/p85α (Homo sapiens (Human), UniProt P42338)
# Sequence (P42338 whole entry): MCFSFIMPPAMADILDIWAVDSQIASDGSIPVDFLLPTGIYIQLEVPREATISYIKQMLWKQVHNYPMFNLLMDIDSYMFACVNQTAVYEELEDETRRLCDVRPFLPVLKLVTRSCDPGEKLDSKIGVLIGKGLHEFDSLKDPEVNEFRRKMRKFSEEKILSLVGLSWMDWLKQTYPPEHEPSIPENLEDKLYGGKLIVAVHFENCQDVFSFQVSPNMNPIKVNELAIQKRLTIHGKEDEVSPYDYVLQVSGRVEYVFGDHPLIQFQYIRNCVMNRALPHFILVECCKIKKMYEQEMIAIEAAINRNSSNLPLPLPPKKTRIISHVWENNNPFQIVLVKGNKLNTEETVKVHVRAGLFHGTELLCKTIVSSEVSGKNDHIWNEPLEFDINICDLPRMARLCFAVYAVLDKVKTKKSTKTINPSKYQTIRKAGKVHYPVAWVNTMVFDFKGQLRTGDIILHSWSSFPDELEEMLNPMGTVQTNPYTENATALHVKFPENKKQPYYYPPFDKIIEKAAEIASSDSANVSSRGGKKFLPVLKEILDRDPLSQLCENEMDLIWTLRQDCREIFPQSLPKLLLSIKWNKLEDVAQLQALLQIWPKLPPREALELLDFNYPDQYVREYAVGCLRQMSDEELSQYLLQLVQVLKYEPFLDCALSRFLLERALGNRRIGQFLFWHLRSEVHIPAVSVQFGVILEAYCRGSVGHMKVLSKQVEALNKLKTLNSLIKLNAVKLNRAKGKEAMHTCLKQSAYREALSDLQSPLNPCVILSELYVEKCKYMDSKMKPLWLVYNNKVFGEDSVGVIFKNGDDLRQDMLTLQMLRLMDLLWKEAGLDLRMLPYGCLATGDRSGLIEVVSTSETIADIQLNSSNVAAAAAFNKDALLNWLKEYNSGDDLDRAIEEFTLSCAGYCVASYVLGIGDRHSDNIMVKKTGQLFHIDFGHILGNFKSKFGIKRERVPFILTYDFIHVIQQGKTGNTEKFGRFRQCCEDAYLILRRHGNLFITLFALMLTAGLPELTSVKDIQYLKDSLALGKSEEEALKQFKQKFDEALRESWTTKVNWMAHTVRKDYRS
# Sequence (P27986 whole entry partner): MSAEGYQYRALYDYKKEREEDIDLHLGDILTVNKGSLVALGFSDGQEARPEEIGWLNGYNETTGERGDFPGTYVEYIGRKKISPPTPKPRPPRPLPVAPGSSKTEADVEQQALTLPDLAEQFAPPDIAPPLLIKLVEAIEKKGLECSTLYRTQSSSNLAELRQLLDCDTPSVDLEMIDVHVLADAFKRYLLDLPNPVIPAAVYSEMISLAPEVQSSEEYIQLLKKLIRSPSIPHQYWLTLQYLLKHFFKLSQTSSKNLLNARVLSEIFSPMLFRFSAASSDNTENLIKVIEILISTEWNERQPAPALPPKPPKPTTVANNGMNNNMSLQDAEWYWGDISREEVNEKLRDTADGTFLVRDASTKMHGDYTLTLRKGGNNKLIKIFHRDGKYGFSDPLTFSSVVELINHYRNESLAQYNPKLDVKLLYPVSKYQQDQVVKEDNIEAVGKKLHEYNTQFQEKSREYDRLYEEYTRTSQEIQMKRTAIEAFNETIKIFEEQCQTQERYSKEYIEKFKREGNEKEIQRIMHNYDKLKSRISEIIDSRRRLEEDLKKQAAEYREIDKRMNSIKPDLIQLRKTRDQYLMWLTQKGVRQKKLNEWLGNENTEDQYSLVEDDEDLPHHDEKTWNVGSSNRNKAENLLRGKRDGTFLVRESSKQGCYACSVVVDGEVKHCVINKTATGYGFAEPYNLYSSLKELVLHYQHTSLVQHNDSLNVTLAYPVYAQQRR
# test: PI 3-Kinase (human) HTRF assay, p110β/p85α
# Format: biochemical
# condition.set: in vitro; read-out: PI3K β IC50

Nc1nc2ccc(-c3ccc4sc(N)nc4c3)cc2o1 : < 100 nM
CN1CCN([C@@H]2CCN(c3cnc4ccc(-c5ccc6oc(N)nc6c5)cc4n3)C2)CC1 : < 1000 nM
Nc1nc2cc(-c3ccc4ncc(N5CC(N6CC[C@H](O)C6)C5)nc4c3)ccc2o1 : < 1000 nM
CN(C)[C@H]1CCN(c2cnc3ccc(-c4ccc5oc(N)nc5c4)cc3n2)C1 : < 1000 nM
Nc1nc2cc(-c3ccc4sc(N)nc4c3)ccc2o1 : < 1000 nM

INPUT: Tell me its IC50 on p110β/p85α (Homo sapiens (Human), UniProt P42338): `Nc1nc2cc(-c3ccc4nnc(-c5cccnc5)n4c3)ccc2o1`
OUTPUT: < 10000 nM

INPUT: Please report IC50 with p110β/p85α (Homo sapiens (Human), UniProt P42338) for item `Nc1nc2cc(-c3ccc4ncc(N5CCN(C(=O)[C@@H](N)CO)CC5)nc4c3)ccc2o1` .
OUTPUT: < 1000 nM

INPUT: Give p110β/p85α (Homo sapiens (Human), UniProt P42338) IC50 for the following compound: `CS(=O)(=O)N1CCN(C2CN(c3cnc4ccc(-c5ccc6oc(N)nc6c5)cc4n3)C2)CC1`
OUTPUT: < 10000 nM
